test_target: Recombinant human renin (Homo sapiens, UniProt P00797)
Sequence (P00797 67-406): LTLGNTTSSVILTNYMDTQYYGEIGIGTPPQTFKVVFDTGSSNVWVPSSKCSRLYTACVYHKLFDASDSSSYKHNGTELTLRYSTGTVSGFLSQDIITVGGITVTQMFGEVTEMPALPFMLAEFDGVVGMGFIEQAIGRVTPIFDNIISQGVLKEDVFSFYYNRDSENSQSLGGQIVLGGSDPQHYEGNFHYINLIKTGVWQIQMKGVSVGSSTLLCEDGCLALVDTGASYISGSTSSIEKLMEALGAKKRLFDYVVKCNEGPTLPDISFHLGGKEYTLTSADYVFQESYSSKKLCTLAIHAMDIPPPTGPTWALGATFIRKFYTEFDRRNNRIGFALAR
test_description: FRET assay of renin inhibition
pIC50: −log10 of the molar value.
measured_endpoint: pIC50

Find the recorded pIC50 belonging to COCCCOc1cc(C[C@@H](C[C@H](N)[C@@H](O)C[C@H](C(=O)N[C@@H](C)C2CCCCC2)C(C)C)C(C)C)ccc1OC and report it. ~9.52
